Where do the numbers come from? From the supplement of paper PMC13380429.

Tested on: Vero E6 infected with SARS-CoV-2
assay: morphology score (similarity to uninfected cells); higher = more like uninfected cells
condition_notes: 24 h
Label y when morphology score is at or above -0.04; otherwise label n.

# compound, group_label
data = [
    ("O=C(NCCN1CCOCC1)c1ccc(Cl)cc1 [moclobemide] (10 µM)", "y"),
    ("C[N+](C)(C)CC#CCN1CCCC1=O [oxotremorine-M] (10 µM)", "y"),
    ("COc1cc([S+](C)[O-])ccc1-c1nc2cccnc2[nH]1 (stereo not drawn) [sulmazole] (10 µM)", "y"),
    ("CN(C(=O)/C=C/c1ccoc1)[C@@H]1CC[C@@]2(O)[C@H]3Cc4ccc(O)c5c4[C@@]2(CCN3CC2CC2)[C@H]1O5 [nalfurafine] (10 µM)", "n"),
    ("O=C1OC(c2ccc(O)cc2)(c2ccc(O)cc2)c2ccccc21 [phenolphthalein] (10 µM)", "y"),
    ("COC(=O)Nc1nc2cc(SC(C)C)ccc2[nH]1 [methiazole] (0.833333 µM)", "n"),
    ("COc1ccccc1OCC(O)CO (stereo not drawn) [guaifenesin] (10 µM)", "n"),
    ("CCC(CC)COC(=O)[C@H](C)N[P@](=O)(OC[C@H]1O[C@@](C#N)(c2ccc3c(N)ncnn23)[C@H](O)[C@@H]1O)Oc1ccccc1 [Remdesivir] (10 µM)", "y"),
    ("O=C1NCN(c2ccccc2)C12CCN(CC1COc3ccccc3O1)CC2 (stereo not drawn) [spiroxatrine] (10 µM)", "n"),
    ("CC(=O)OCC1=C(C(=O)O)N2C(=O)[C@@H](NC(=O)CSc3ccncc3)[C@H]2SC1 [cephapirin] (10 µM)", "n"),
    ("CN(C)CCOC(=O)COc1ccc(Cl)cc1 [meclofenoxate] (10 µM)", "n"),
    ("COc1ccc2[nH]c(C(=O)c3ccccc3)cc2c1 (0.833333 µM)", "n"),
    ("CCCCc1ccc(NS(=O)(=O)c2ccc(F)cc2)cc1 (10 µM)", "y"),
    ("CCCCNc1ccc(C(=O)OCCN(C)C)cc1 [tetracaine] (10 µM)", "n"),
    ("CCn1cc(C(=O)O)c(=O)c2ccc(-c3ccncc3)cc21 [rosoxacin] (10 µM)", "y"),
    ("Cc1cc(OCc2nc(-c3ccccc3Cl)cs2)ccc1OCC(=O)O [GPR120-modulator-1] (10 µM)", "n"),
    ("O=C(O)CCNC(=O)c1ccccc1 [betamipron] (10 µM)", "y"),
    ("Cc1ccc(Cl)c(Nc2ccccc2C(=O)O)c1Cl [meclofenamic-acid] (10 µM)", "y"),
    ("O=C(O)CCCO (10 µM)", "y"),
    ("OCCN1CCN(CC/C=C2/c3ccccc3Sc3ccc(C(F)(F)F)cc32)CC1 [flupentixol] (10 µM)", "y"),
    ("Nc1nc(O)c2ncn(CCC(CO)CO)c2n1 [penciclovir] (10 µM)", "y"),
    ("CC(C)(C)NC[C@H](O)COc1cccc2c1CCCC2=O [levobunolol] (10 µM)", "y"),
    ("O=C(O)c1cc(O)c2c(Cl)cc(Cl)cc2n1 [5,7-dichlorokynurenic-acid] (10 µM)", "y"),
    ("C#C[C@]1(O)CC[C@H]2[C@@H]3CCC4=CC(=O)CC[C@@H]4[C@H]3CC[C@@]21C [Norethindrone (Norethisterone)] (10 µM)", "y"),
    ("CC[C@@H]1Cn2c(c3nc(-c4ccccc4)nc-3n(C)c2=O)N1 (10 µM)", "y"),
    ("NC(=O)Cc1cccc(C(=O)c2ccccc2)c1N [nepafenac] (10 µM)", "y"),
    ("CC(Oc1c(Cl)cccc1Cl)C1=NCCN1 (stereo not drawn) [lofexidine] (10 µM)", "n"),
    ("C[C@@H](N[C@H]1CCCC[C@@H]1NC(=O)c1ccc(Cl)cc1)c1cccc2ccccc12 [Calhex-231] (10 µM)", "y"),
    ("CC(=O)N[C@H](Cc1ccc2ccccc2c1)C(=O)N[C@H](Cc1ccc(Cl)cc1)C(=O)N[C@H](Cc1cccnc1)C(=O)N[C@@H](CO)C(=O)N[C@@H](Cc1ccc(O)cc1)C(=O)N[C@H](CCCNC(N)=O)C(=O)N[C@@H](CC(C)C)C(=O)N[C@@H](CCCNC(=N)N)C(=O)N1CCC[C@H]1C(=O)N[C@H](C)C(N)=O [cetrorelix] (10 µM)", "y"),
    ("O=C(NCCN1CCCCC1)c1ccc(I)cc1 [N-[2-(piperidinylamino)ethyl]-4-iodobenzamide] (10 µM)", "y"),
    ("CN(C)CCCCC(=O)Nc1ccc(NC(=S)NC(=O)c2ccc(C(C)(C)C)cc2)cc1 [tenovin-6] (0.833333 µM)", "n"),
    ("Sc1ncnc2nc[nH]c12 [mercaptopurine] (0.833333 µM)", "y"),
    ("COc1ccc(C(=O)Nc2c(Cl)cncc2Cl)cc1OC1CCCC1 [piclamilast] (10 µM)", "y"),
]
